# System: Plasmodium falciparum
# procedure.summary: NOVARTIS: Inhibition of Plasmodium falciparum 3D7 (drug-susceptible) proliferation in erythrocyte-based infection assay
# Format: functional, organism-based
# condition.notes: Plasmodium falciparum, 3D7
pEC50: −log10 of the molar value.
As shown below, each of these compounds has a reported pEC50 value.

compound	relation.qualifier	pEC50
O=C1N(Cc2cc3ccccc3s2)CC2CN(Cc3ccccc3)CCN12 (stereo unspecified)	=	6.36
Cc1ccc(Nc2nc(NN=Cc3ccc(-c4ccc([N+](=O)[O-])cc4)o3)nc(Nc3ccccc3)n2)c(C)c1	<	6.08
CCCNC(=O)c1ccc(OC2CCN(CC3CCCCC3)CC2)c(Cl)c1	=	6.54
COc1cc(/C=C2\SC(c3ccc(C)cc3)=NC2=O)cc(OC)c1OC	<	5.90
CCc1ccc(CN2CCC(O)(c3ccc4oc(C(=O)Nc5ccc6c(c5)OCO6)cc4c3)CC2)cc1	=	6.44
Cc1cc(C)c2c(c1)c(-c1ccccc1)c(-c1ccccc1)n2CC(O)Cn1cnc(-c2ccccc2)c1-c1ccccc1 (stereo unspecified)	=	5.87
CCN(CC)CCCC(C)Nc1ccnc2cc3ccccc3cc12 (stereo unspecified)	=	7.05
CN(C)c1ccc(C=C2SC(=Nc3ccccc3)NC2=O)cc1	=	7.57
CN(C)c1ccc(N=Cc2ccc(N3CCOCC3)cc2)cc1	=	6.76
Clc1ccc(Nc2nc(Nc3ccc(Cl)cc3)c3ccccc3n2)cc1	=	6.83
COC(=O)C1=CN(Cc2ccc(Cl)cc2)C=C(C(=O)OC)C1c1ccc(Cl)c(Cl)c1	<	5.09
CCCCNCCN1CCN(c2ccc3ccccc3c2)C[C@@H]1c1ccccc1	=	7.46
CCCCCC(=O)NCCCCCCNc1ccnc2cc(Cl)ccc12	=	6.60
CCC(SC1=Nc2ccccc2C2=NC(C(C)C)C(=O)N12)C(=O)Nc1cccc(C)c1 (stereo unspecified)	=	5.15
CC(=O)N/C(=C\c1ccc(OC(F)F)cc1)C(=O)O	<	5.93
COc1ccc([N+](=O)[O-])cc1C=NNc1nc(Nc2ccc([N+](=O)[O-])cc2)nc(N2CCN(C)CC2)n1	=	6.07
O=C(Nc1ccc(F)c(Cl)c1)c1c2c(nc3ccccc13)CCN(Cc1ccccc1)C2	=	6.10
CCCCOc1ccc(N2C(N)=NC(N)=NC2(C)C)cc1	=	6.81
CCOC(=O)c1ccc(NCc2c(C)[nH]c3ccccc3c2=O)cc1	=	6.47
CCC(C)(O)C(=O)O[C@H]1C(=O)OC2CC3C(C)=C[C@H](O)[C@@H](O)[C@]3(C)C3C24CO[C@]3(O)[C@H](O)[C@H](C)C14 (stereo partly specified)	=	6.64
Cc1nc(NC(=N)N)nc2ccccc12	=	6.05

----------
As shown below, each of these compounds has a reported CC50 value.
# procedure.summary: NOVARTIS: Cytotoxicity against human hepatocellular carcinoma cell line (Huh7)
# Type: toxicity, cell-based, Huh-7
# condition.notes: Huh7 cells (hepatocellular carcinoma cell line)
value.type: CC50

                                    compound  measured_value
 0  CN(C)CCNc1ncc(C(=O)NCc2ccccc2)c(NCCc2ccccc2)n1         > 10 µM
 1          OCCSc1nc(-c2ccccc2)nc2ccc(F)cc12         > 10 µM
 2  Cn1c(C(C#N)C(=S)NC2CCCCC2)nc2cccnc21 (configuration not stated)         > 10 µM
 3         Cc1ccc2cc3cc(C(=O)NC(C)C)sc3nc2c1         > 10 µM
 4  CCN(CC)CCCC(C)N=c1cc(C=Cc2ccc([N+](=O)[O-])cc2)[nH]c2ccc(OC)cc12 (configuration not stated)         11.7 µM
 5         O=c1cc(C(F)(F)F)c2cc(Cl)c(O)cc2o1        > 100 µM
 6  COc1ccc(OC)c(-c2ccc(O)c(CNCCc3ccccc3F)c2)c1         > 10 µM
 7  CN1CCCC1CCNc1ncc(C(=O)NCc2ccccc2)c(NC2CCCC2)n1 (configuration not stated)         > 10 µM
 8      O=c1c(=Cc2ccc(Cl)cc2)sc2nc3ccccc3n12         > 10 µM
 9  CCc1noc(C)c1C(=O)NCCN1Cc2ccccc2OC(c2ccsc2)C1 (configuration not stated)        > 100 µM
10  CCc1c(C#N)c(N)nc2sc(C(=O)c3ccc(Br)cc3)c(N)c12        > 100 µM
11   CCOc1ccc2nc(C)c(CN(C)Cc3ccccc3)c(O)c2c1         > 10 µM
12  Cc1oc2c(c1C(=O)NCc1cccnc1)C(=O)c1ccccc1C2=O         1.91 µM
13      Cc1cc(C)n(N=Cc2ccc(Cl)cc2)c(=O)c1C#N        > 100 µM
14  CN(CCCNc1ccnc2cc(Cl)ccc12)C(=O)C1C[C@H]1c1ccccc1 (some centres not stated)       > 11.6 µM
15  CCCCCCN(C(=O)COCc1ccccc1)C(CC)c1nc2ccccc2c(=O)n1-c1cccc(Cl)c1 (configuration not stated)       > 7.77 µM
16  Cc1nc(N2CCCCC2)c2c(C)c(C(=O)N3CCN(c4ccccc4F)CC3)sc2n1         > 10 µM
17  O=C1/C(=C\c2ccccc2)SC(=Nc2ccccc2)N1C1CCCCC1        > 100 µM
18  CCN1/C(=C/C2=CC(=C/c3sc4ccccc4[n+]3CC)/CC(C)(C)C2)C=Cc2ccccc21         42.2 µM
19   CCc1n(C)c2ccccc2[n+]1CC(=O)c1ccc(Br)cc1         > 10 µM
20  CCCCCC(=O)N1c2ccccc2N=C2CC(c3ccc(OC)c(OC)c3)CC(O)=C2C1c1ccc(C(F)(F)F)cc1 (configuration not stated)        > 100 µM
21  CN(C)c1nnc(C(C#N)=Cc2cc(C(=O)c3cccc(Cl)c3)cn2C)o1        > 100 µM
